Source listed as ChEMBL document CHEMBL4043103.

Species: Rattus norvegicus
Experiment: animal or person
Details: Wistar, po, read-out: INH
ENDPOINT: inhibition in vivo at 10 mg/kg (%)
Give the value, in units of %, as a plain number.

Use these answered entries as a reference point.
| MOLECULE_SMILES | inhibition in vivo at 10 mg/kg / % |
| --- | --- |
| NCc1c(-c2ccccc2)c(C(=O)O)c2ccccn12 | 66.2 |
| NCc1c(-c2ccc3c(c2)OCO3)c(C(=O)O)c2ccccn12 | 23.1 |
| CCCCc1c(C(=O)O)c2ccccn2c1CN | 15.4 |

Next:
Field inhibition in vivo at 10 mg/kg (entry COc1cc(-c2c(C(=O)O)c3ccccn3c2CN)ccc1O ) reads 36.9
